# target.or.system: Cx43 HCs (Homo sapiens)
# Construct: expressed in transfected cells
# Sequence (P17302 whole entry): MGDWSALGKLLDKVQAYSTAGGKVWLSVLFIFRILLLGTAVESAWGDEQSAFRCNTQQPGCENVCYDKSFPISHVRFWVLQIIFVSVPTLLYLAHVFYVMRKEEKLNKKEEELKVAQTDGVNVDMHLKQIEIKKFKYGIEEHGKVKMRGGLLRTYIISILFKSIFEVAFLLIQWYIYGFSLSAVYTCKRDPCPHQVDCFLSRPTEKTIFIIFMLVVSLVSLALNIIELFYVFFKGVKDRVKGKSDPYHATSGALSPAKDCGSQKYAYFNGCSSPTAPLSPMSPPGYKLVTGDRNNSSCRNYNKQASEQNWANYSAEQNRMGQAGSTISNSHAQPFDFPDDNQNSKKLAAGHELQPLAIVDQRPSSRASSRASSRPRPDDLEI
# test.method.notes: Cx43-dependent growth complementation assay in E. coli LB2003
# Type: cell-based
# stated.conditions: the 22nd table; read-out: Cx43 IC50
observed.property: IC50 (µM)

>>> df
                                   compound         target_or_system  units  recorded_number
0  Cc1ccc(OC[C@H]2OC(OC3C(N)CC(N)C(O[C@H]4OC(CN)[C@@H](O)C(O)C4O)[C@@H]3O)[C@H](O)C(N)C2O)cc1 (some centres unmarked)  Cx43 HCs (Homo sapiens)     µM              7.1
1  NCC1O[C@H](OC2C(N)CC(N)C(OC3O[C@H](COc4ccc(Cl)cc4)C(O)C(N)[C@H]3O)[C@H]2O)C(O)C(O)[C@@H]1O (some centres unmarked)  Cx43 HCs (Homo sapiens)     µM              8.9

----------
# target.or.system: Cx43 HCs (Homo sapiens)
# Construct: expressed in transfected cells
# test.method.notes: Cx43-dependent growth complementation assay in E. coli LB2003
# Assay type: cell-based
# stated.conditions: 15 μM; Table 6; read-out: Cx43 (% inhibition)
observed.property: inhibition at 15 µM (%)

Worked cases, answers included:
compound	observed.property	recorded.number
NCC1O[C@H](OC2C(N)CC(N)C(OC3O[C@H](COc4ccccc4)C(O)C(N)[C@H]3O)[C@H]2O)C(O)C(O)[C@@H]1O (some centres unmarked)	inhibition at 15 µM	36
NCC1O[C@H](OC2C(N)CC(N)C(OC3O[C@H](COc4ccc([N+](=O)[O-])cc4)C(O)C(N)[C@H]3O)[C@H]2O)C(O)C(O)[C@@H]1O (some centres unmarked)	inhibition at 15 µM	36.5
NC1CC(N)C(O[C@H]2OC(CNC(=O)c3cc(-c4ccccc4)nc4ccccc34)[C@@H](O)C(O)C2O)[C@H](O)C1OC1O[C@H](CO)C(O)C(N)[C@H]1O (some centres unmarked)	inhibition at 15 µM	25.5

1. COc1ccc(OC[C@H]2OC(OC3C(N)CC(N)C(O[C@H]4OC(CN)[C@@H](O)C(O)C4O)[C@@H]3O)[C@H](O)C(N)C2O)cc1 (some centres unmarked)
2. CCCCCCCCCC(=O)NCC1O[C@H](OC2C(N)CC(N)C(OC3O[C@H](CO)C(O)C(N)[C@H]3O)[C@H]2O)C(O)C(O)[C@@H]1O (some centres unmarked)
Ask: Smaller inhibition at 15 µM value? Options are 1 and 2 Return value: the label identifying the chosen record.
Result: 1

----------
# target.or.system: human Cx26 HCs (Homo sapiens)
# Construct: expressed in transfected cells; host or cells: E. coli LB2003 (carrying pREP4), transformed with pQE-Cx26, IPTG-induced
# test.method.notes: Cx26-dependent growth complementation assay in E. coli LB2003
# Assay type: cell-based
# stated.conditions: first Table 2; read-out: IC50, inhibition of Cx26 by synthetic AGs
pIC50: −log10 of the molar value.
observed.property: pIC50

Worked cases, answers included:
compound	recorded.number
NCC1OC(OC2C(N)CC(N)C(OC3OC(COCc4cccc(-c5ccccc5)c4)C(OCc4cccc(-c5ccccc5)c4)C(N)C3O)C2O)C(O)C(O)C1O (stereo not shown) [Compound 16, 4″,6″-Di-O-(3-phenylbenzyl)-kanamycin]	5.21
NCC1OC(OC2C(N)CC(N)C(OC3OC(COCc4cccc5ccccc45)C(OCc4cccc5ccccc45)C(N)C3O)C2O)C(O)C(O)C1O (stereo not shown) [Compound 15]	5.18
Cc1ccc(COCC2OC(OC3C(N)CC(N)C(OC4OC(CN)C(O)C(O)C4O)C3O)C(O)C(N)C2OCc2ccc(C)cc2)cc1 (stereo not shown) [Compound 11, 4″,6″-Di-O-(4-methylbenzyl) kanamycin]	5.37

I. COc1ccc(COCC2OC(OC3C(N)CC(N)C(OC4OC(CN)C(O)C(O)C4O)C3O)C(O)C(N)C2OCc2ccc(OC)cc2)cc1 (stereo not shown) [Compound 10, 4″,6″-Di-O-(4-methoxybenzyl) kanamycin]
II. NCC1OC(OC2C(N)CC(N)C(OC3OC(COCc4ccc5ccccc5c4)C(OCc4ccc5ccccc5c4)C(N)C3O)C2O)C(O)C(O)C1O (stereo not shown) [Compound 14]
Ask: Two entries are listed, I and II . Which one carries the higher pIC50? Return value: the label identifying the chosen record.
Result: II
